Test system: Colo320
Assay: cells
Type: cell-based
Listed compounds paired with reported Basal_Viability ATP Colo 320 IC50/EC50
attribute_measured: Basal_Viability ATP Colo 320 IC50/EC50 (µM)

* O=C(Nc1ccc(Oc2ccc(Cl)cc2)c(Cl)c1)c1cc(I)cc(I)c1O | 0.054
* Cc1cc(C(C#N)c2ccc(Cl)cc2)c(Cl)cc1NC(=O)c1cc(I)cc(I)c1O (stereo not drawn) | 0.116
* C/C(=C(/OCCOc1ccc(Cl)cc1)c1ccc(Cl)cc1Cl)n1ccnc1 | 5.8551
* COc1ccc(-n2nc(CCC(=O)N(C)O)cc2-c2ccc(Cl)cc2)cc1 | 0.6615
* O=C(c1cc(O)c(O)c(O)c1)c1ccc(O)c(O)c1O | 9.382
